Molecular target: T1, cynomolgus monkey IL-4Rα (cynomolgus monkey, UniProt P24394 26-231 (human entry), limits assumed)
T1 construct: also called Cyno IL-4Rα; cyIL-4Rα
T1 chain: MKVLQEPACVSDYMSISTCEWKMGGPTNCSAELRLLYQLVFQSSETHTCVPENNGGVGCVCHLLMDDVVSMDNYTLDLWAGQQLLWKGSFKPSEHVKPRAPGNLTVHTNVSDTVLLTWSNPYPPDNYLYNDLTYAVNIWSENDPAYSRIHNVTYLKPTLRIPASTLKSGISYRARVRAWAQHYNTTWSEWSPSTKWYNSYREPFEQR
Experiment: SPR, Carterra LSA;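 also: antibodies captured on an anti-human Fc sensor chip, antigen injected at several concentrations, association and dissociation rates fitted with a 1:1 Langmuir model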
Field: KD Relative to Dupilumab. Provide a value for each of the binders that follow.
Reply: number alone, nothing else.

stdin: Dear colleague, I am looking for the recorded KD Relative to Dupilumab of the following binder: Construct 4 (mAb413) (antibody, IgG4, V domains shown, VH/VL only) VH: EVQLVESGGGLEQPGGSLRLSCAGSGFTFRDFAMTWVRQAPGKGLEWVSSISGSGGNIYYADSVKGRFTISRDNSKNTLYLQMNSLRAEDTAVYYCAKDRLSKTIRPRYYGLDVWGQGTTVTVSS VL: DIVMTQSPLSLPVTPGEPASISCTASQSLLYSIGYNYVDWYLQKSGQSPQLLIYLGNNRATGVPDRFSGSGSGTDFTLKISRVEAEDVGFYYCMQALTTPYTFGQGTKLEIK
stdout: 0.2

stdin: Dear colleague, I am looking for the recorded KD Relative to Dupilumab of the following binder: Construct 42 (mAb481) (antibody, IgG4, V domains shown, VH/VL only) VH: EVQLVESGGGLEQPGGSLRLSCAGSGFTFRTYAMTWVRQAPGKGLEWVSSISGDGSNTYYADSVKGRFTISRDNSKNTLYLQMNSLRAEDTAVYYCAKDRVSITIRPRYYGLDVWGQGTTVTVSS VL: DIVMTQSPLSLPVTPGEPASISCTASQSLLYSIGYNYVDWYLQKSGQSPQLLIYLGNKRASGVPDRFSGSGSGTDFTLKISRVEAEDVGFYYCMQALTTPYTFGQGTKLEIK
stdout: 0.25
